# System: Plasmodium falciparum
# Test Name: GSK_TCMDC: Inhibition of Plasmodium falciparum 3D7 in whole red blood cells, using parasite LDH activity as an index of growth. Test compounds present at 2uM
# Assay type: functional
Each entry below carries its reported Inhibition.
Expressed in %, but write only the number.

Sample records with Inhibition:
[in] Sample "CCOc1ccc(-c2nonc2NC(=O)c2ccccc2)cc1OCC" — what was its Inhibition?
[out] 99

[in] Sample "Cn1cncc1-c1ccc2ncnc(Nc3ccc4c(cnn4Cc4ccccc4)c3)c2c1" — what was its Inhibition?
[out] 100

[in] Sample "Cc1[nH]c(C)c(-c2ccc(OCCCc3ccccn3)cc2)c(=O)c1Br.Cl" — what was its Inhibition?
[out] 98

New cases:
[in] Sample COCCNC(=O)C(CNC(=O)c1ccc2c(c1)OCO2)NC(=O)c1ccc(-c2ccccc2)cc1 (stereo not given) — what was its Inhibition?
[out] 90

[in] Sample "Nc1nccc2ccc(-c3ccc(NC(=O)Nc4cc(C(F)(F)F)ccc4F)cc3)cc12.O=C(O)C(F)(F)F" — what was its Inhibition?
[out] 100

###

# System: Plasmodium falciparum
# Test Name: GSK_TCMDC: Inhibition of Plasmodium falciparum Dd2 in whole red blood cells, using parasite LDH activity as an index of growth. Test compounds present at 2uM
# Assay type: functional
Result Type: Inhibition (%)
Expressed in %, but write only the number.

Sample records with Inhibition:
[in] Sample "COc1ccc(CCc2ccc(-c3c(C)[nH]c(C)c(Cl)c3=O)cc2)cc1OC" — what was its Inhibition?
[out] 97

[in] Sample "OCc1c(Cl)cc(Cl)cc1CNCCCNc1nc2ccccc2[nH]1" — what was its Inhibition?
[out] 2

[in] Sample "CN1CCN(c2ccnc3ccc(NC(=O)Nc4cccc5c(Br)cccc45)cc23)CC1.Cl" — what was its Inhibition?
[out] 96

[in] Sample "COCCOCCOCCn1ccc2c3c(N)nc(N)nc3ccc21" — what was its Inhibition?
[out] 0

[in] Sample "Br.CC(C)Oc1ccc(CCCON2C(=N)N=C(N)NC2(C)C)cc1" — what was its Inhibition?
[out] 94

New cases:
[in] Sample COc1ccc(C(=O)CCC(=O)N(Cc2ccc(-c3ccc(CNCCc4ccc(S(C)(=O)=O)cc4)cn3)cc2)C(C)CN(C)C)cc1F.O=C(O)C(F)(F)F (centres undefined) — what was its Inhibition?
[out] 85

[in] Sample "CN(C)CCCOc1ccc(CCCCc2ccc(Cl)cc2C(=O)c2ccccc2)cc1.O=C(O)C(=O)O" — what was its Inhibition?
[out] 8

[in] Sample "CN(C(=O)Cc1ccc(Cl)cc1)C1CCN(CCCCCNC(=O)/C=C/c2ccc(Cl)c(Cl)c2)CC1" — what was its Inhibition?
[out] 16

[in] Sample "CCCCc1cc(NCc2ccncc2)nc(Nc2ccc(OC)cc2)n1" — what was its Inhibition?
[out] 22

###

# System: Plasmodium falciparum
# Test Name: GSK_TCMDC: Inhibition of Plasmodium falciparum Dd2 in whole red blood cells, using parasite LDH activity as an index of growth. Test compounds present at 2uM
# Format: functional
Result Type: Inhibition (%)
Expressed in %, but write only the number.

Sample records with Inhibition:
[in] Lab note: need Inhibition with Plasmodium falciparum for entry "Cc1ccc(Nc2nc(N/N=C/c3cccc([N+](=O)[O-])c3)nc(Nc3ccccc3)n2)c(C)c1" , please look it up.
[out] 97

[in] Lab note: need Inhibition with Plasmodium falciparum for entry "OCc1ccc(-c2cncc(Nc3ccc(F)c(Cl)c3)c2)cc1" , please look it up.
[out] 99

[in] Lab note: need Inhibition with Plasmodium falciparum for entry "Nc1cnc(C#Cc2cc3ncnc(N(CCN4CCOCC4)c4ccc(OCc5cccc(F)c5)c(Cl)c4)c3s2)cn1" , please look it up.
[out] 57

[in] Lab note: need Inhibition with Plasmodium falciparum for entry "COc1ccc(NC(=O)N2CCCN(CCCCCNC(=O)/C=C/c3ccc(C(F)(F)F)cc3)CC2)cc1Cl" , please look it up.
[out] 0

Let's switch to this molecule now.
[in] Lab note: need Inhibition with Plasmodium falciparum for entry CN1CCC(c2nc(N)no2)C1.O=C(O)C(=O)O (stereo not given) , please look it up.
[out] 2
